Data origin, for the record: paper PMC10815170

Biological target: α-Glucosidase from Saccharomyces cerevisiae (Saccharomyces cerevisiae, UniProt P53341)
Sequence (P53341 whole entry): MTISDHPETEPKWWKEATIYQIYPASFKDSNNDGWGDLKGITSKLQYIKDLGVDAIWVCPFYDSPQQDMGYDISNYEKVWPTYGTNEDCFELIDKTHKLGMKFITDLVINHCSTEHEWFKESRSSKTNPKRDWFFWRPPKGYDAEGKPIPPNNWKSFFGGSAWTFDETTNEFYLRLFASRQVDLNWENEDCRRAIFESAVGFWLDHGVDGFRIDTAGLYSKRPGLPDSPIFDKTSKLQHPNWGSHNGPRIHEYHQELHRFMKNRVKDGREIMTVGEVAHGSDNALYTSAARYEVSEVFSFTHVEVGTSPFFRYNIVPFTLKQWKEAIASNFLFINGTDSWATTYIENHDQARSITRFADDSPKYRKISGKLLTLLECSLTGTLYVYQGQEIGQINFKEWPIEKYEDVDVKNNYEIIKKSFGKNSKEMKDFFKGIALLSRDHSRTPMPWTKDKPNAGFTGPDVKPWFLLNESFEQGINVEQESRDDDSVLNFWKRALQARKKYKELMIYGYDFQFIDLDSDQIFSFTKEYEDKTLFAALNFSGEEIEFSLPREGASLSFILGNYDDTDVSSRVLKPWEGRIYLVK
pIC50: −log10 of the molar value. Peptide text beside a SMILES is read from it.
Each record here notes measured pIC50.
Assay readout: pIC50

compound="C[C@H](NC(=O)[C@H](CCC(=O)O)NC(=O)[C@@H](N)CCC(=O)O)C(=O)N[C@@H](CCC(=O)O)C(=O)NCC(=O)N[C@H](C(=O)O)[C@@H](C)O [EEAEGT] (H-EEAEGT-OH)" assay_readout=pIC50 reported_measurement=2.19
compound="CC(C)C[C@H](N)C(=O)N[C@@H](C)C(=O)N[C@@H](CC(=O)O)C(=O)N[C@@H](Cc1c[nH]c2ccccc12)C(=O)O [LADW] (H-LADW-OH)" assay_readout=pIC50 reported_measurement=2.36
